Assign % change of tdTomato fibroblast signal to each entry below.
Test system: HSV-1 K26-GFP infected 3D skin equivalent
ASSAY NAME: % change of tdTomato fibroblast signal relative to infected DMSO control; higher = higher signal (negative = inhibition / toxicity)
ASSAY SETUP: 0.041152 µM; time (h post infection): 48; model: submerged
One number for each entry, in %.

- COc1ccc(-c2nc(N3CCOCC3)c3sc(CN(C)c4ncc(C(=O)NO)cn4)cc3n2)cn1 [Fimepinostat]: 12.3
- CC1(C)CC(=O)c2c(C(F)(F)F)nn(-c3ccc(C(N)=O)c(N[C@H]4CC[C@H](O)CC4)c3)c2C1: -4.63
- C=CC(=O)N1CC/C(=C\c2ccc(F)c([N+](=O)[O-])c2)C(=O)/C(=C/c2ccc(F)c([N+](=O)[O-])c2)C1: 0.174

Note: attention shifts to another entry.
Fill blank: measured % change of tdTomato fibroblast signal of the compound Cc1nc(N(C)C(=O)Cc2ccc(-c3ccccn3)cc2)sc1S(N)(=O)=O is ____.
11.8

###

Please go through the items and note down their % change in live cells.
System: primary keratinocytes
ASSAY NAME: % change in live cells vs DMSO control; higher = less cytotoxic
ASSAY SETUP: 0.740741 µM; donor: 3; time (h post treatment): 20
// unit must come after the numeric part

- O=C(/C=C\n1cnc(-c2cc(C(F)(F)F)cc(C(F)(F)F)c2)n1)NNc1ccccn1 [Verdinexor]: -38.7%
- COc1ccc(-c2nc(N3CCOCC3)c3sc(CN(C)c4ncc(C(=O)NO)cn4)cc3n2)cn1 [Fimepinostat]: -38.7%
- Cc1nc(N(C)C(=O)Cc2ccc(-c3ccccn3)cc2)sc1S(N)(=O)=O [Pritelivir]: -8.33%
- CC1(C)CC(=O)c2c(C(F)(F)F)nn(-c3ccc(C(N)=O)c(N[C@H]4CC[C@H](O)CC4)c3)c2C1 [SNX-2112]: -40.3%
- CC(=O)O[C@H]1C[C@H](O[C@H]2[C@@H](O)C[C@H](O[C@H]3[C@@H](O)C[C@H](O[C@H]4CC[C@@]5(C)[C@H](CC[C@@H]6[C@@H]5C[C@@H](O)[C@]5(C)[C@@H](C7=CC(=O)OC7)CC[C@]65O)C4)O[C@@H]3C)O[C@@H]2C)O[C@H](C)[C@H]1O[C@@H]1O[C@H](CO)[C@@H](O)[C@H](O)[C@H]1O [Lanatoside C]: -55.3%

Recorded % change in live cells of Cc1cccc(C)c1N(CC(=O)Nc1ccc(-c2ncon2)cc1)C(=O)C1CCS(=O)(=O)CC1 [Amenamevir] , please.
-12%

###

Tested on: HSV-1 K26-GFP infected primary human skin cells
ASSAY NAME: % change of HSV-1 GFP signal vs untreated infected cells; higher = less antiviral inhibition
ASSAY SETUP: 0.7407 µM; cell type: primary keratinocytes; donor: 5; time (h post infection): 20
REPORTED METRIC: % change of HSV-1 GFP signal (%)
Numbers only, in %.

Examples with their reported % change of HSV-1 GFP signal follow.
- Nc1ccn([C@@H]2O[C@H](CO)[C@@H](O)C2(F)F)c(=O)n1: -94.7
- COc1ccc(-c2nc(N3CCOCC3)c3sc(CN(C)c4ncc(C(=O)NO)cn4)cc3n2)cn1 [Fimepinostat]: -48
- CC1(C)CC(=O)c2c(C(F)(F)F)nn(-c3ccc(C(N)=O)c(N[C@H]4CC[C@H](O)CC4)c3)c2C1: -100

Respectfully, I request % change of HSV-1 GFP signal for each entry included below.
1. C=CC(=O)N1CC/C(=C\c2ccc(F)c([N+](=O)[O-])c2)C(=O)/C(=C/c2ccc(F)c([N+](=O)[O-])c2)C1
2. O=C(Nc1ccc([N+](=O)[O-])cc1Cl)c1cc(Cl)ccc1O [Niclosamide]
3. O=C(/C=C\n1cnc(-c2cc(C(F)(F)F)cc(C(F)(F)F)c2)n1)NNc1ccccn1 [Verdinexor]
4. Cc1nc(N(C)C(=O)Cc2ccc(-c3ccccn3)cc2)sc1S(N)(=O)=O

[1.2, -2.44, 8.2, -94.1]

Return % change of HSV-1 GFP signal measured with HSV-1 K26-GFP infected primary human skin cells given this compound: CC(C)c1cnn2c(NCc3ccccc3-n3cccn3)nc(OC3CCCNC3)nc12 (stereo not drawn)
-17.4
